Taken from ChEMBL document CHEMBL2057096.

- EXPERIMENTAL_TARGET: Sphingosine 1-phosphate receptor 3 (Homo sapiens)
- Sequence (Q99500 whole entry): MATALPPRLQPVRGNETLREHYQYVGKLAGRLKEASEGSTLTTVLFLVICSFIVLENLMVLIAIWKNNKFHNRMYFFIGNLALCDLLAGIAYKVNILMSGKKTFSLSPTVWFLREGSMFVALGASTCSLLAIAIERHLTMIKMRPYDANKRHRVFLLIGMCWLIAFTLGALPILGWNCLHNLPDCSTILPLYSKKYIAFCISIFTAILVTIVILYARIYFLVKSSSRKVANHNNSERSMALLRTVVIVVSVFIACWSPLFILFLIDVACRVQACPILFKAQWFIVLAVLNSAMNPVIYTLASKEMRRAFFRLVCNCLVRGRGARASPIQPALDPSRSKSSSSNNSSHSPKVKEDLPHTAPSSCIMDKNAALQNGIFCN
- TEST: Agonist activity against S1P3 receptor by cell based FRET assay
pEC50: −log10 of the molar value.
Below is a list of entries, each paired with its recorded pEC50 value.

[[record]]
compound = "CCc1c(CCN2CC(C(=O)O)C2)cccc1-c1nsc(-c2ccc(OC(C)C)c(Cl)c2)n1"
experimental_target = "Sphingosine 1-phosphate receptor 3 (Homo sapiens)"
metric = "pEC50"
result = "< 5.50"

[[record]]
compound = "CCc1c(CCCC(=O)O)cccc1-c1nnc(-c2ccc(OC(C)C)c(C#N)c2)s1"
experimental_target = "Sphingosine 1-phosphate receptor 3 (Homo sapiens)"
metric = "pEC50"
result = "< 5.00"

[[record]]
compound = "CCc1c(CCCC(=O)O)cccc1-c1noc(-c2ccc(OC(C)C)c(C#N)c2)n1"
experimental_target = "Sphingosine 1-phosphate receptor 3 (Homo sapiens)"
metric = "pEC50"
result = "< 5.00"

[[record]]
compound = "CCc1c(CCCC(=O)O)cccc1-c1ccc(-c2ccc(OC(C)C)c(C#N)c2)cc1"
experimental_target = "Sphingosine 1-phosphate receptor 3 (Homo sapiens)"
metric = "pEC50"
result = "< 5.00"


Entry CCc1c(CCCC(=O)O)cccc1-c1cnc(-c2ccc(OC(C)C)c(C#N)c2)nc1 — recorded pEC50 = < 5.00

Entry CCc1c(CCN2CC(C(=O)O)C2)cccc1-c1nsc(-c2ccc(CC(C)C)c(C#N)c2)n1 — recorded pEC50 = 5.60
